# subjectOfTest: BLVRB (Homo sapiens)
# assayMethodText: Isothermal titration calorimetry (ITC) of compound binding to BLVRB
# conditionInfo: 25 °C, single-site binding model
Catalogue of compounds with associated N (stoichiometry)
parameterMeasured: N (stoichiometry)

{"columns": ["compound", "measured"],
 "data": [
  ["Cc1c(Nc2ncccc2C(=O)O)cccc1C(F)(F)F", 0.99],
  ["CC1(C)CCC(C)(C)c2cc(NC(=O)c3ccc(C(=O)O)cc3)ccc21", 1.07],
  ["O=C(O)c1ccccc1-c1c2cc(I)c(=O)c(I)c-2oc2c(I)c(O)c(I)cc12 [Erythrosin B, reference compound]", 1.04],
  ["O=C(O)c1cc(/N=N/c2ccc(S(=O)(=O)Nc3ccccn3)cc2)ccc1O", 0.99],
  ["Cc1nc(-c2ccc(OCC(C)C)c(C#N)c2)sc1C(=O)O", 1.01],
  ["O=C([O-])c1c(Cl)c(Cl)c(Cl)c(Cl)c1-c1c2cc(Br)c(=O)c(Br)c-2oc2c(Br)c([O-])c(Br)cc12.[Na+].[Na+] [Phloxine B, reference compound]", 0.99],
  ["O=C(O)c1ccc(-n2nc(-c3ccccc3O)nc2-c2ccccc2O)cc1", 1.00],
  ["O=C(O)c1cccc(-c2noc(-c3ccccc3F)n2)c1", 1.02],
  ["O=C(O)c1cc2ccccc2c(Cc2c(O)c(C(=O)O)cc3ccccc23)c1O", 1.01]
]}

----------
# subjectOfTest: BLVRB (Homo sapiens, UniProt P30043)
# Sequence (P30043 whole entry): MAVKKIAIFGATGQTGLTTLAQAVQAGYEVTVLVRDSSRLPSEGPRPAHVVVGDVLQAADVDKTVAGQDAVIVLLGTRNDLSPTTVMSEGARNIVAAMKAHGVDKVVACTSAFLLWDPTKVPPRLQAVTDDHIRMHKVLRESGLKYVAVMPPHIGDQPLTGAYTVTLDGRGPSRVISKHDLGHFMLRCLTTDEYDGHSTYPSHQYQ
# assayMethodText: Isothermal titration calorimetry (ITC) of compound binding to BLVRB
# conditionInfo: 25 °C
parameterMeasured: TΔS (kJ/mol)

{"columns": ["molecule", "subjectOfTest", "parameterMeasured", "measured"],
 "data": [
  ["Cc1c(Nc2ncccc2C(=O)O)cccc1C(F)(F)F [Compound of formula 7]", "BLVRB (Homo sapiens, UniProt P30043)", "TΔS", 1.72],
  ["O=C([O-])c1c(Cl)c(Cl)c(Cl)c(Cl)c1-c1c2cc(Br)c(=O)c(Br)c-2oc2c(Br)c([O-])c(Br)cc12.[Na+].[Na+] [Phloxine B, reference compound]", "BLVRB (Homo sapiens, UniProt P30043)", "TΔS", 17.2],
  ["O=C(O)c1cc2ccccc2c(Cc2c(O)c(C(=O)O)cc3ccccc23)c1O [Compound of formula 8]", "BLVRB (Homo sapiens, UniProt P30043)", "TΔS", 4.52],
  ["O=C(O)c1ccccc1-c1c2cc(I)c(=O)c(I)c-2oc2c(I)c(O)c(I)cc12 [Erythrosin B, reference compound]", "BLVRB (Homo sapiens, UniProt P30043)", "TΔS", 12.2]
]}

Reference for the values: patent US11744839B2
